Give growth inhibition for every item shown.
- methodNotes: NCI Yeast Anticancer Drug Screen. Data for the mec2-1 strain (AID 157)
- details: S. cerevisiae mec2-1 strain, at 50.0 µM (retest, dose inferred, filed as 5.0), active compounds read high
Compounds without any hit were thinned out: in the full panel of roughly 79,000, 15% have a hit. Activity calls are given as the source filed them. No stated cut-off is given here; in the data, active means growth inhibition above about 70%; inactive means the rest.

{"compound": "CC(CCC(=O)O)(c1cc(Br)c(O)c(Br)c1)c1cc(Br)c(O)c(Br)c1", "reported": "72% (active)"}
{"compound": "CCN(CC)CCC(=O)c1ccc2c3c(n(C)c2c1)CCCC3", "reported": "9% (inactive)"}
{"compound": "Nc1ccc(S(=O)(=O)N2CCCc3ccccc32)cc1", "reported": "21% (inactive)"}
{"compound": "Clc1ccc2c(NC3CCC(N4CCCCC4)CC3)ccnc2c1 (stereo unspecified)", "reported": "97% (active)"}
{"compound": "O=C1C=CC(=O)c2nc3c(nc21)[nH]c1ccccc13", "reported": "94% (active)"}
{"compound": "CCc1cc(CC)c(-c2ccco2)c(COC(=O)NC)c1", "reported": "64% (inactive)"}

Take each entry in turn and give its growth inhibition.
1. FC(F)(F)c1ccccc1NC(=S)SCc1ccc(Cl)cc1
2. Nc1ccc(S(=O)(=O)Nc2nc3ccccc3nc2N2CCCCC2)cc1
3. Cc1nc2c(Cl)nc(Cl)nc2s1
4. O=C1CCCC/C1=C\c1ccc(Cl)c(Cl)c1
5. COc1ccc(C2c3cc4c(cc3OC(O)C2C)OCO4)c(OC)c1 (stereo unspecified)
6. CCC[CH2][Sn]([CH2]CCC)([O]C(=O)c1cc(OC)c(OC)c(OC)c1)[O]C(=O)c1cc(OC)c(OC)c(OC)c1

RESULT:
1: 95% (active); 2: 44% (inactive); 3: 98% (active); 4: 100% (active); 5: 95% (active); 6: 96% (active)

Record growth inhibition for all entries; do not skip any.
1. Cn1c2nc(-[n+]3ccccc3)nc-2c([O-])n(C)c1=O
2. O=c1c(Cl)cc2nc3ccccc3sc-2c1Cl

RESULT:
1: 7% (inactive); 2: 84% (active)

Value sought for every listed compound: growth inhibition.
1. CCN(CCN1C(=O)C2CCCCC2C1=O)c1ccc(N=O)c(C)c1 (stereo unspecified)
2. CCOC(=O)c1c(O)c(C)c(=O)n2c1[nH]c1cc(C)c(C)cc12
3. CCOC(=O)Nc1c(F)cc(F)cc1F
4. C/C(=N/NC(=S)Nc1ccc([N+](=O)[O-])cc1)c1cccc(/C(C)=N\NC(=S)Nc2ccc([N+](=O)[O-])cc2)n1

RESULT:
1. 99% (active)
2. 33% (inactive)
3. 1% (inactive)
4. 72% (active)

Take each entry in turn and give its growth inhibition.
1. Cc1c(O)c(Br)c(Br)c(Br)c1Br
2. CC(=O)Oc1ccc(-c2ccccc2)cc1Br

RESULT:
97% (active)
98% (active)
